assayExplanation: Compound concentrations in organs and blood after 3, 6, 12 µmol/kg s.c. (Figure 4A)
Format: in vivo, C57BL/6 mice
conditionsUsed: female, C57BL/6, mouse, liver, sc, 8 h after treatment, read-out: concentration in liver

[
  {
    "compound": "CCCCc1nc2c(N)nc3ccccc3c2n1CCC1CCN(C(=O)CN(C)CC(=O)N(C)C2CC(C)OC(OC3C(C)C(OC4CC(C)(OC)C(O)C(C)O4)C(C)C(=O)OC(CC)C(C)(O)C(O)C(C)N(C)CC(C)CC3(C)O)C2O)CC1 (centres unmarked)",
    "concentration at 8 h, nM": 5100
  },
  {
    "compound": "CCCCc1nc2c(N)nc3ccccc3c2n1CCC1CCNCC1",
    "concentration at 8 h, nM": 173
  }
]

====

assayExplanation: Cassette bioavailability i.v., i.p., p.o. (blood and organ concentrations by HPLC-MS/MS)
Assay type: in vivo, C57BL/6 mice
conditionsUsed: female, C57BL/6, mouse, whole blood (tail vein), iv, i.v. 0.5 mg/kg, 15 min after application, tail vein blood
measurementType: Cmax (nM)

[
  {
    "compound": "CCCCc1nc2c(N)nc3ccccc3c2n1CC1CCN(C(=O)CN(C)CC(=O)N(C)[C@H]2C[C@@H](C)O[C@@H](O[C@@H]3[C@@H](C)[C@H](O[C@H]4C[C@@](C)(OC)[C@@H](O)[C@H](C)O4)[C@@H](C)C(=O)O[C@H](CC)[C@@](C)(O)[C@H](O)[C@@H](C)N(C)C[C@H](C)C[C@@]3(C)O)[C@@H]2O)CC1",
    "measuredValue": 352
  },
  {
    "compound": "CCOCc1nc2c(N)nc3ccccc3c2n1CC(C)(C)O [RSQ, Resiquimod, reference compound]",
    "measuredValue": 854
  },
  {
    "compound": "CCCCc1nc2c(N)nc3ccccc3c2n1CCC1CCN(C(=O)CN(C)CC(=O)N(C)C2CC(C)OC(OC3C(C)C(OC4CC(C)(OC)C(O)C(C)O4)C(C)C(=O)OC(CC)C(C)(O)C(O)C(C)N(C)CC(C)CC3(C)O)C2O)CC1 (stereo not drawn)",
    "measuredValue": 392
  }
]

====

The following molecules are listed with their measured compound plasma level at peak values.
assayExplanation: Compound concentrations in organs and plasma after three consecutive daily s.c. treatments (Figure 6B, S7)
Format: in vivo, mice
conditionsUsed: day 3, 60 min after application, s.c.
measurementType: compound plasma level at peak (µM)

[
  {
    "molecule": "CCCCc1nc2c(N)nc3ccccc3c2n1CCC1CCNCC1 [A1]",
    "measuredValue": 0.066
  },
  {
    "molecule": "CCCCc1nc2c(N)nc3ccccc3c2n1CCC1CCN(C(=O)CN(C)CC(=O)N(C)C2CC(C)OC(OC3C(C)C(OC4CC(C)(OC)C(O)C(C)O4)C(C)C(=O)OC(CC)C(C)(O)C(O)C(C)N(C)CC(C)CC3(C)O)C2O)CC1 (stereo not shown) [A1-mac]",
    "measuredValue": 0.639
  },
  {
    "molecule": "CC(C)Cn1cnc2c(N)nc3ccccc3c21 [IMQ, Imiquimod]",
    "measuredValue": 0.608
  }
]

====

assayTarget: human TLR8 (Homo sapiens, UniProt Q9NR97)
Construct: host or cells: HEK blue hTLR8 reporter cells
Sequence (Q9NR97 27-1041): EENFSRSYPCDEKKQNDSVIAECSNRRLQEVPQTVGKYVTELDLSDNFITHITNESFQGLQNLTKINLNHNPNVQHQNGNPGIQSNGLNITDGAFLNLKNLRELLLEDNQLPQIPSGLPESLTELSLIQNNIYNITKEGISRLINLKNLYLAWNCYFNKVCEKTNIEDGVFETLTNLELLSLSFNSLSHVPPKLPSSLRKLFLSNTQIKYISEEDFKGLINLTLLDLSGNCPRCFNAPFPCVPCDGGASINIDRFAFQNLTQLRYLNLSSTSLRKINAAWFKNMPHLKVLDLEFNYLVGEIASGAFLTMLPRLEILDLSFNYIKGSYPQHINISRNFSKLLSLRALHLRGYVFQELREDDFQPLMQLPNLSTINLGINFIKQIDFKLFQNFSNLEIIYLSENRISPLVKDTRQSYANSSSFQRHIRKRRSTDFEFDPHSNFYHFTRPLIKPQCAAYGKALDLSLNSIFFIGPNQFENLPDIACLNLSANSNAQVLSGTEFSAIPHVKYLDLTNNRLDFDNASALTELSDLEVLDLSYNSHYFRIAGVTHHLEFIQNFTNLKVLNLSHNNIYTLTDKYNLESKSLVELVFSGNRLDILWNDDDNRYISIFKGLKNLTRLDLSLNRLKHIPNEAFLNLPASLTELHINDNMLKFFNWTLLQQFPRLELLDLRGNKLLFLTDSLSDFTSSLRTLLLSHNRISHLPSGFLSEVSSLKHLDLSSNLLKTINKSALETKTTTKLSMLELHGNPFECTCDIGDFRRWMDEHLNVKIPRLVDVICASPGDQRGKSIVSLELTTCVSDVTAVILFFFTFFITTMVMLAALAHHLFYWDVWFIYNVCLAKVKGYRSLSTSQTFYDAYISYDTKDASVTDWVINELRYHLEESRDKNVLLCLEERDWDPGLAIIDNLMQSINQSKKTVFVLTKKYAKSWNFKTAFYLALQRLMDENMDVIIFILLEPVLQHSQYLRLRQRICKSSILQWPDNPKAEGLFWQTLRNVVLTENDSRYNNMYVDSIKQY
assayExplanation: HEK-Blue hTLR8 SEAP reporter assay
Assay type: cell-based
conditionsUsed: 95% CI; HEK-blue human TLR8, 24 h; read-out: TLR8 EC50
The following compounds are listed with their measured EC50 values.
measurementType: EC50

[
  {
    "mol": "CCCCc1nc2c(N)nc3ccccc3c2n1CC1CCNCC1",
    "measuredValue": "2.8 to 3.1 µM"
  },
  {
    "mol": "CCCCc1nc2c(N)nc3ccccc3c2n1CCOCCOCCO",
    "measuredValue": "11 to 13 µM"
  },
  {
    "mol": "CCCCc1nc2c(N)nc3ccccc3c2n1CCOCCOCCN",
    "measuredValue": "8.2 to 8.5 µM"
  }
]
